# maps each entry to its IC50
# MEASURED_ON: human NHE3 (Homo sapiens, UniProt P48764)
# Sequence (P48764 26-834): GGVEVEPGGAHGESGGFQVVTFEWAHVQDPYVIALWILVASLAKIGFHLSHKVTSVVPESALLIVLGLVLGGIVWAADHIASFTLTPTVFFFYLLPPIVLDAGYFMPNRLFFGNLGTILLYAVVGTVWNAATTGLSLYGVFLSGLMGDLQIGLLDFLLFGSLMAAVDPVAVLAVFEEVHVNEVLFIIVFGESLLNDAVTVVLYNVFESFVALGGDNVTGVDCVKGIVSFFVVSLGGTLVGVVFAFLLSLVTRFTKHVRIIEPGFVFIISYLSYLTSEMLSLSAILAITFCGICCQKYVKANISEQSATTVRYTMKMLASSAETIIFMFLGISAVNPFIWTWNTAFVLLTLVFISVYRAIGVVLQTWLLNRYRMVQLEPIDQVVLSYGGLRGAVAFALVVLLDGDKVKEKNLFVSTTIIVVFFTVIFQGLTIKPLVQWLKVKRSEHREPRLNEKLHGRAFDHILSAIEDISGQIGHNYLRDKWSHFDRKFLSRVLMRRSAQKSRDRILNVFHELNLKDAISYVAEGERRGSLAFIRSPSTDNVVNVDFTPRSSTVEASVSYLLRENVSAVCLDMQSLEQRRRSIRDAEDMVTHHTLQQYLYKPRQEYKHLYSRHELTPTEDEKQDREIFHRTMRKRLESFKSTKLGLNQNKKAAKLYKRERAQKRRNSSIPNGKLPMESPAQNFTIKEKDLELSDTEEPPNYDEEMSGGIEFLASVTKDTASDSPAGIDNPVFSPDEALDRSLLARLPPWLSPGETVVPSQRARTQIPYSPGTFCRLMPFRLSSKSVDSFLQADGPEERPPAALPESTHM
# MEASUREMENT_PROTOCOL: NHE3 inhibition test (recovery of intracellular pH in cell line stably expressing human NHE3)
# PARTICULARS: OK cells deficient in endogenous NHE stably expressing human NHE3; BCECF fluorescence, initial rate of pH recovery; read-out: human NHE3 inhibitory activity IC50
# Protocol: (1) Preparation of Cell Line Deficient in Endogenous NHE […] NHE3 activity measurement method using cell: The activity was determined by using the NHE3-mediated recovery of intracellular pH occurring after intracellular acidification, as an index. The intracellular pH was measured by a partial modification of the pH-sensitive fluorescent indicator method reported by Tsien et al. (Proc. Natl. Acad. Sci. USA., 1984, 81, 7436-7440). […]
Structures can show the parent of a compound that is named as a salt.

| COMPOUND | UNIT_TAG | IC50 |
| --- | --- | --- |
| CN1Cc2c(Cl)cc(Cl)cc2[C@H](c2cccc(-c3cn(CCOCCOCCOCCOCCNC(=O)[C@H](O)[C@@H](O)C(=O)NCCOCCOCCOCCOCCn4cc(-c5cccc([C@@H]6CN(C)Cc7c(Cl)cc(Cl)cc76)c5)nn4)nn3)c2)C1 [Example 6-9, hydrochloride] | nM | 4.1 |
| CN1Cc2c(Cl)cc(Cl)cc2[C@H](c2cccc(-c3nnc(CCOCCOCCNC(=O)NCCCCNC(=O)NCCOCCOCCc4nnc(-c5cccc([C@@H]6CN(C)Cc7c(Cl)cc(Cl)cc76)c5)o4)o3)c2)C1 | nM | 5.5 |
| Cc1cc(-c2cccc([C@@H]3CN(C)Cc4c(Cl)cc(Cl)cc43)c2)sn1 [Example 1-19, hydrochloride] | nM | 856 |
